Source: ChEMBL document CHEMBL5154677

# run description: Dissociation constant , pKa of the compound
# Type: physicochemical
Listed molecules paired with reported pKa
Answer as a number with no unit attached.

molecule: Nc1ccc(CO)cc1
measured result: 9.68

Now let's try a different one.
In: // lookup pKa for CCc1c2c(nc3ccc(O)cc13)-c1cc3c(c(=O)n1C2)COC(=O)[C@]3(O)CC [7-ETHYL-10-HYDROXYCAMPTOTHECIN]
Out: 9.2

* * *

# run description: Cytotoxicity against HEK293T cells assessed as reduction in cell viability measured after 72 hrs by CCK-8 assay
# Assay type: toxicity, cell-based, HEK-293T
# condition details: human
Each record here notes measured IC50 at 72 h.
API: value field is a number in µM; no unit string.

molecule: CCc1c2c(nc3ccc(O)cc13)-c1cc3c(c(=O)n1C2)COC(=O)[C@]3(O)CC [7-ETHYL-10-HYDROXYCAMPTOTHECIN]
outcome measure: IC50 at 72 h
units text: µM
measured result: 0.0142

Here is another molecule to look at.
In: Consider the molecule "CCc1c2c(nc3ccc(OCc4ccc([N+](C)(C)[O-])cc4)cc13)-c1cc3c(c(=O)n1C2)COC(=O)[C@]3(O)CC" and give its measured IC50 at 72 h.
Out: 0.0663
